test: Particle size distribution of active pharmaceutical ingredient (Malvern Mastersizer 2000); type: physicochemical

| molecule | Particle size distribution D90 |
| --- | --- |
| C=CC(=O)N[C@H]1CCOC[C@H]1Nc1ncc2cc(-c3c(F)c(OC)cc(OC)c3F)nc(N3CC(C)(OC)C3)c2n1 [Test 0] | 333.563 μm |

----------
assay: Particle size distribution of active pharmaceutical ingredient (Malvern Mastersizer 2000); type: physicochemical
Form field: Particle size distribution D50 (one value per entry).

| molecule | Particle size distribution D50 / μm |
| --- | --- |
| C=CC(=O)N[C@H]1CCOC[C@H]1Nc1ncc2cc(-c3c(F)c(OC)cc(OC)c3F)nc(N3CC(C)(OC)C3)c2n1 [Test 2] | 9.682 |
| C=CC(=O)N[C@H]1CCOC[C@H]1Nc1ncc2cc(-c3c(F)c(OC)cc(OC)c3F)nc(N3CC(C)(OC)C3)c2n1 [Test 3] | 8.279 |
| C=CC(=O)N[C@H]1CCOC[C@H]1Nc1ncc2cc(-c3c(F)c(OC)cc(OC)c3F)nc(N3CC(C)(OC)C3)c2n1 [Test 0] | 155.607 |
| C=CC(=O)N[C@H]1CCOC[C@H]1Nc1ncc2cc(-c3c(F)c(OC)cc(OC)c3F)nc(N3CC(C)(OC)C3)c2n1 [Test 1] | 14.763 |
